Where do these numbers come from? They come from patent US9249157B2.

- System: human Notch 1
- experimental_details: Notch-CBF1 Transactivation Assay (Notch 1)
- Type: cell-based
- cond: HeLa cells transfected with truncated Notch 1 and CBF1 luciferase reporter; 18 hours incubation
Task for the reader: assign each of the following compounds its reported IC50.
A number alone suffices; assume µM.

Query: So what does the record say about IC50 for "Cc1nocc1[C@H](C(N)=O)[C@@H](CCC(F)(F)F)C(=O)N[C@H]1N=C(c2ccccc2)c2cccc3c2N(CCN3)C1=O" ?
Response: 0.0169

Query: Another: "CCC[C@@H](C(=O)N[C@H]1N=C(c2ccccc2)c2cccc3c2N(CCO3)C1=O)[C@H](CCC(F)(F)F)C(N)=O"
Response: 0.0139

Query: Another: "NC(=O)[C@@H](CC1CC1)[C@@H](CC1CC1)C(=O)N[C@H]1N=C(c2ccccc2)c2cccc3c2N(CCO3)C1=O"
Response: 0.0219

###

Task for the reader: assign each of the following compounds its reported pIC50.
- System: human Notch 1
- experimental_details: Notch-CBF1 Transactivation Assay (Notch 1)
- Type: cell-based
- cond: HeLa cells transfected with truncated Notch 1 and CBF1 luciferase reporter; 18 hours incubation
For clarity, pIC50 is expressed as the negative log10 of concentration in mol/L.

Query: So what pIC50 did "NC(=O)[C@@H](c1ccccc1)[C@@H](CCC(F)(F)F)C(=O)N[C@H]1N=C(c2ccccc2)c2cccc3c2N(CCN3)C1=O" get with human Notch 1?
Response: 7.82

Query: Another: "NC(=O)[C@@H](CCCF)[C@@H](CCC(F)(F)F)C(=O)N[C@H]1N=C(c2ccccc2)c2cccc3c2N(CCO3)C1=O"
Response: 7.83

Query: Another: "Cc1cccc(C2=N[C@H](NC(=O)[C@H](CCC(F)(F)F)[C@@H](C(N)=O)c3ccccc3)C(=O)N3CCOc4cccc2c43)c1"
Response: 7.83

Query: Another: "CCC[C@H](C(N)=O)[C@@H](CCC(F)(F)F)C(=O)N[C@H]1N=C(c2ccccc2)c2cccc3c2N(CCN3)C1=O"
Response: 7.84

Query: Another: "CCC[C@H](C(N)=O)[C@@H](CCC(F)(F)F)C(=O)N[C@H]1N=C(c2cccc(Cl)c2)c2cccc3c2N(CCO3)C1=O"
Response: 7.77
